# System: KM12
# Assay details: NCI tumour cell line growth inhibition, 48 h
Active and inactive are the calls of the source. Cut-off read from the data, not from the text of the source: active = GI50 up to about 1.1 µM and inactive = higher.
Value kind: GI50

Enquiry: So what's the measured GI50 for this one? C/C(Sc1ccccc1)=C1/CCCN(Cc2ccccc2)C1
Return: 20.1 µM (inactive)

Enquiry: Now this one: CC(C)C(C(=O)O)N(CC1(O)OCC(O)C(O)C1O)N=O (stereo not given)
Return: > 100 µM (inactive)

Enquiry: Now this one: N#CC(/C(CCCC(=O)Nc1cccc([N+](=O)[O-])c1)=N\NC(=O)c1c(O)ccc2ccccc12)c1nc2ccccc2s1 (stereo not given)
Return: 28.8 µM (inactive)

Enquiry: Now this one: Cc1ncc([N+](=O)[O-])n1CCNC(=O)Cn1ccnc1[N+](=O)[O-]
Return: > 100 µM (inactive)

Enquiry: Now this one: Cn1c(-c2ccc(C=O)o2)ccc1-c1ccc(C=O)o1
Return: 36.2 µM (inactive)

###

# System: NCI/ADR-RES
# Assay details: NCI tumour cell line growth inhibition, 48 h
Calls of active or inactive are those of the source. Rule as the data show it: active = GI50 up to about 1.1 µM and inactive = higher.
Hi there, I'd appreciate the recorded GI50 for every entry that follows.

Enquiry: Which GI50 is reported with NCI/ADR-RES for this entry: CC(CO)CCNc1ncnc2c1ncn2CCC#N (stereo not given) ?
Return: > 100 µM (inactive)

Enquiry: Now this one: COc1ccc2nc(-c3ccccc3)cc(OCC(=O)O)c2c1
Return: > 100 µM (inactive)

Enquiry: Now this one: CN(C)c1ccc(/C=N\NC(=O)c2ccccc2Nc2ccccc2C(=O)N/N=C/c2ccc(N(C)C)cc2)cc1
Return: > 100 µM (inactive)

Enquiry: Now this one: COc1ccc(C2CC(c3ccc4ccccc4c3O)=NN2C(C)=O)cc1OC (stereo not given)
Return: > 100 µM (inactive)

Enquiry: Now this one: Cc1c(/N=N/c2ccc(Cl)cc2)c(-c2ccccc2)n(C2OC(CO)C(O)C(O)C2O)c(=S)c1C#N (stereo not given)
Return: 13.6 µM (inactive)

###

# System: MDA-MB-435
# Assay details: NCI tumour cell line growth inhibition, 48 h
Active and inactive are the calls of the source. No stated cut-off is given here; in the data, active = GI50 up to about 1.1 µM and inactive = higher.
Outcome (select one): t (active), f (inactive)

Enquiry: # lookup: test call for CO[C@@H]1C[C@H]2[C@@H]3CC[C@H]([C@H](C)COC(C)=O)[C@@]3(C)CC[C@@H]2[C@@]2(C)CC[C@H]3C[C@]312
Return: f

Enquiry: Now this one: CC1CN=C(NCc2ccccc2)S1 (stereo not drawn)
Return: f

Enquiry: Now this one: CC(C)(O)/C=C/C(=O)[C@](C)(O)[C@H]1[C@H](O)C[C@@]2(C)[C@@H]3CC=C4[C@@H](C=C(O)C(=O)C4(C)C)[C@]3(C)C(=O)C[C@]12C [CUCURBITACIN I]
Return: t

###

# System: U-251
# Assay details: NCI tumour cell line growth inhibition, 48 h
Activity calls are given as the source filed them. No stated cut-off is given here; in the data, active = GI50 up to about 1.1 µM and inactive = higher.
Outcome (select one): active, inactive

Enquiry: # lookup: test call for CC(=O)N(C)c1ccc2c(ccc[n+]2[O-])c1[N+](=O)[O-]
Return: inactive

Enquiry: Now this one: COC(c1ccc(C(C)(C)C)cc1)(c1ccc(C(C)(C)C)cc1)c1cc(C(O)(c2cc(C(OC)(c3ccc(C(C)(C)C)cc3)c3ccc(C(C)(C)C)cc3)c(C)cc2C)c2cc(C(OC)(c3ccc(C(C)(C)C)cc3)c3ccc(C(C)(C)C)cc3)c(C)cc2C)c(C)cc1C
Return: inactive

Enquiry: Now this one: COc1ccc(/C=C/C(=O)C(C)(C)CN2CCCCC2)cc1
Return: inactive

Enquiry: Now this one: O=C1N[C@@H](c2c[nH]c3ccc(Br)cc23)C(=O)N[C@H]1c1c[nH]c2ccc(Br)cc12
Return: inactive

Enquiry: Now this one: NC(CCC(=O)O)(CCC(=O)O)CCC(=O)O
Return: inactive

Enquiry: Now this one: COC(=O)NC(Cc1ccccc1)NC(=O)OC(C)(C)C (stereo unspecified)
Return: inactive

Enquiry: Now this one: Cc1cc(N(CCC#N)S(=O)(=O)c2ccccc2)ccc1C=O
Return: inactive

Enquiry: Now this one: CC(Cl)CC(=O)OCC1CCCN2CCCCC12 (stereo unspecified)
Return: inactive

Enquiry: Now this one: COC(=O)CCC(=O)c1ccc2c(c1)CC1(C2)Cc2ccc3c(c2C1)CCCC3=O (stereo unspecified)
Return: inactive

Enquiry: Now this one: Cc1ccc(S(=O)(=O)N/N=C(\C(=O)Nc2cccc([N+](=O)[O-])c2)c2nc3ccc([N+](=O)[O-])cc3nc2O)cc1
Return: inactive

Enquiry: Now this one: C#CCCCC(=O)N(C(=O)C[S+]([O-])CC)c1ccccc1 (stereo unspecified)
Return: inactive

Enquiry: Now this one: CCOC(=O)c1ccc(NC(NC(=O)CC)(C(F)(F)F)C(F)(F)F)cc1
Return: inactive

Enquiry: Now this one: O=c1c(C(c2ccc([N+](=O)[O-])cc2)c2c(O)c3ccccc3n(-c3ccccc3)c2=O)c(O)c2ccccc2n1-c1ccccc1
Return: inactive

Enquiry: Now this one: [O-][S+](Nc1ccccc1)c1ccc(-c2ccccc2)cc1 (stereo unspecified)
Return: inactive

Enquiry: Now this one: O=C(O)c1ccccn1
Return: inactive

Enquiry: Now this one: COc1ccc2cc(C(=O)NCCc3ccccc3)ccc2c1OC
Return: inactive

Enquiry: Now this one: C[C@@H]1O[C@@H]2OCC[C@@H]2C2=C1C(=O)c1ccccc1C2=O
Return: inactive

Enquiry: Now this one: CCCCCCCCCCCCCCCCCCN(C)CC(COC)OP(=O)([O-])OCC[N+](C)(C)C (stereo unspecified)
Return: active

Enquiry: Now this one: COc1ccc2nc3cc(Cl)ccc3c(NCCCN3CCN(CCCNc4ccc5nnn6c7ccccc7c(=O)c4c56)CC3)c2c1
Return: inactive

Enquiry: Now this one: CC(CN(C)C)C(O)(c1ccccc1)c1ccccc1 (stereo unspecified)
Return: inactive

Enquiry: Now this one: CNS(=O)(=O)NNS(=O)(=O)c1ccc(F)cc1
Return: inactive

Enquiry: Now this one: CC1OC(OC2C(CO)OC(O[C@H]3CC[C@@]4(C)C(=CC[C@H]5[C@@H]6C[C@@H]7O[C@](O)(CC[C@H](CO)COC8OC(CO)C(O)C(O)C8O)[C@@H](C)[C@@H]7[C@@]6(C)CC[C@@H]54)C3)C(OC3OC(C)C(O)C(O)C3O)C2O)C(O)C(O)C1O (stereo partly specified)
Return: inactive

Enquiry: Now this one: COc1ccc(C(=O)OC2C=COC(C)C2OC(=O)c2ccc(OC)cc2)cc1 (stereo unspecified)
Return: inactive

Enquiry: Now this one: O=c1c2ccccc2oc2nc3n(c(=O)c12)CCCS3
Return: inactive

Enquiry: Now this one: Cc1c(/N=N/c2ccc(Cl)cc2)c(-c2ccccc2)n(C2OC(CO)C(O)C(O)C2O)c(=S)c1C#N (stereo unspecified)
Return: inactive

Enquiry: Now this one: COc1ccc2nc(-c3ccccc3)cc(OCC(=O)O)c2c1
Return: inactive

Enquiry: Now this one: CC(=O)Nc1ccc2nc(N)n[n+]([O-])c2c1
Return: inactive

Enquiry: Now this one: O=C(CCc1ccccc1)NS(=O)(=O)c1ccccc1
Return: inactive

Enquiry: Now this one: CCOC(=O)c1cc2nc3ccccc3c(=O)n2c2ccccc12
Return: inactive

Enquiry: Now this one: CCOC(=O)c1c[nH]c2cc3c(cc2c1=O)CCS3
Return: inactive

Enquiry: Now this one: S=C1ON=C(c2ccccc2)/C1=C/Nc1ccccc1
Return: inactive

Enquiry: Now this one: NC(=O)c1ccc(NCC2=CC(=O)C=CC2=O)cc1
Return: inactive

Enquiry: Now this one: CC(=O)CC(O)(C(F)(F)Cl)C(F)(Cl)Cl (stereo unspecified)
Return: inactive

Enquiry: Now this one: CCOC(=O)N[C@H]1CCc2cc(OC)c(OC)c(OC)c2-c2ccc(SC)c(=O)cc21
Return: active

Enquiry: Now this one: CCCCCCCCCCCCC/C=C1\C[C@H](O)COC1=O
Return: inactive

Enquiry: Now this one: CC1=C(/C(C)=N/NC(=O)C(N)=O)Sc2ccccc2N1
Return: inactive

Enquiry: Now this one: COC(=O)/C=C1/OC(c2ccc(C)cc2C)=CC1=O
Return: inactive

Enquiry: Now this one: COc1cc(C2c3cc4c(cc3C(O)C3CCC(=O)N23)OCO4)cc(OC)c1OC (stereo unspecified)
Return: inactive

Enquiry: Now this one: CCCc1c(OC)c(=O)c2c(OC)cc(OC)c3c4c(OC)cc(OC)c5c(=O)c(OC)c(CCC)c(c1c23)c54
Return: inactive

Enquiry: Now this one: C[N+](C)(C)CC1CCC(C[N+](C)(C)C)C1=O (stereo unspecified)
Return: inactive

Enquiry: Now this one: CN(C)S(=O)(=O)Nc1nnc(S(N)(=O)=O)s1
Return: inactive

###

# Test system: MDA-MB-435
# Assay details: NCI tumour cell line growth inhibition, 48 h
The source made the active and inactive calls. Cut-off read from the data, not from the text of the source: active = GI50 up to about 1.1 µM and inactive = higher. Where a SMILES comes first, the peptide text is derived from it. [ ]: non-standard residue; d: D form. The star is where a group is joined. ξ: configuration not given here. ξPhe(4-NO2) = NC(Cc1ccc([N+](=O)[O-])cc1)C(=O)O; Boc = CC(C)(C)OC(=O)*
Outcome (select one): active, inactive

Enquiry: # lookup: test call for CC(=O)OC(Cn1cncn1)(Cn1cncn1)c1ccc(Cl)cc1Cl
Return: inactive

Enquiry: Now this one: CCNC(=O)CNC(=O)C(Cc1ccc([N+](=O)[O-])cc1)NC(=O)OC(C)(C)C (configuration not stated) (Boc-[ξPhe(4-NO2)]-Gly-NHEt)
Return: inactive

Enquiry: Now this one: COC(=O)C1=Nc2c(C)nn(-c3ccccc3)c2N=C(c2ccc([N+](=O)[O-])cc2)C1
Return: inactive

Enquiry: Now this one: CC1=CCCC2C1(C)CCC(C)C2(C)Cc1cc(O)ccc1O (configuration not stated)
Return: inactive

Enquiry: Now this one: COC(C/C=C\C=C\CC/C=C/CC(C)/C=C/C(=C\C(=O)O)CC(=O)O)/C(C)=C\C=C(/C)C(=O)O (configuration not stated)
Return: inactive

Enquiry: Now this one: COc1ccc(CC2C(=O)NC(C)C(=O)N(C)C3Cc4ccc(cc4)Oc4cc(ccc4O)CC(C(=O)NC(C)C(=O)NC(C)C(=O)N2C)N(C)C3=O)cc1 (configuration not stated)
Return: active

Enquiry: Now this one: Nc1cc(N)c(/N=N/c2cccc3c(S(=O)(=O)O)cccc23)cc1/N=N/c1cc([N+](=O)[O-])ccc1O
Return: inactive

Enquiry: Now this one: CN1C(NN)=NS(=O)(=O)c2ccccc21
Return: inactive

Enquiry: Now this one: C=C1C(=O)OC2/C=C(\C)C(=O)CC3OC(C)(C)OC3(C)CC(OC(=O)/C(C)=C/C)C12 (configuration not stated)
Return: inactive

Enquiry: Now this one: C#CCOC(=O)c1ccc(OC(C)=O)cc1
Return: inactive

Enquiry: Now this one: CC(Cl)CC(=O)OCC1CCCN2CCCCC12 (configuration not stated)
Return: inactive

Enquiry: Now this one: Nc1ncnc2c1ncn2Cc1cccc(CCl)c1
Return: inactive

Enquiry: Now this one: CCOC(=O)N[C@H]1CCc2cc(OC)c(OC)c(OC)c2-c2ccc(SC)c(=O)cc21
Return: active

Enquiry: Now this one: CC(C)(C)OC(=O)NCC(=O)N1CCN(C(=O)CNC(=O)OC(C)(C)C)CC1
Return: inactive

Enquiry: Now this one: CN/C(=N\c1ccc(OC)c2ccccc12)SC
Return: inactive

Enquiry: Now this one: CC(CN(C)C)C(O)(c1ccccc1)c1ccccc1 (configuration not stated)
Return: inactive

Enquiry: Now this one: CCOC(=O)Nc1cc(NC(/C=N/NC(C)=O)C(=O)OCC)c(OC)cc1NC(C)=O (configuration not stated)
Return: inactive

Enquiry: Now this one: COc1cc(/C=C2\N=C(c3ccccc3)N(/N=C/c3cc4cc(C)ccc4nc3Cl)C2=O)cc(OC)c1OC
Return: inactive

Enquiry: Now this one: COC(=O)[C@H](Cc1ccccc1)NC(=O)N1CCN(C(=O)N[C@@H](Cc2ccccc2)C(=O)OC)CCN(C(=O)N[C@@H](Cc2ccccc2)C(=O)OC)CC1
Return: inactive

Enquiry: Now this one: Cc1ccc(S[C@@H](C)[C@@](O)(CF)CN(Cc2ccccc2)C(=O)C(F)(F)F)cc1
Return: inactive

Enquiry: Now this one: CC[N+]1(C)CCC(O)(c2ccc(Cl)cc2)C(C(=O)c2ccc(Cl)cc2)C1 (configuration not stated)
Return: inactive

Enquiry: Now this one: COC(=O)C1CC23CCCN4CCC5(c6ccccc6N(C=O)C15CC2)C43 (configuration not stated)
Return: inactive
